- testSummary: Cytotoxic activity against human HeLa cells assessed as reduction in cell viability incubated for 24 hrs by MTT assay
- Type: cell-based
propertyLabel: CC50 at 24 h

Example entries and their recorded answers appear below.
Look up and report measured CC50 at 24 h for this entry: CCN(CC)CCCC(C)Nc1ccnc2cc(Cl)ccc12 (configuration not stated) [CHLOROQUINE]
> 1000 µg/mL

Look up and report measured CC50 at 24 h for this entry: O=S(=O)(Nc1ncccn1)c1ccc(Nc2ccnc3cc(Cl)ccc23)cc1
494 µg/mL

Look up and report measured CC50 at 24 h for this entry: O=S(=O)(Nc1nccs1)c1ccc(Nc2ccnc3cc(Cl)ccc23)cc1
334 µg/mL

Look up and report measured CC50 at 24 h for this entry: O=S(=O)(Nc1ccccn1)c1ccc(Nc2ccnc3cc(Cl)ccc23)cc1
113 µg/mL

Look up and report measured CC50 at 24 h for this entry: NNC(=O)c1cccnc1 [NICOTINIC ACID HYDRAZIDE]
153 µg/mL

Look up and report measured CC50 at 24 h for this entry: Cc1cc(NS(=O)(=O)c2ccc(Nc3ccnc4cc(Cl)ccc34)cc2)no1
290 µg/mL

Continuing:
Look up and report measured CC50 at 24 h for this entry: NS(=O)(=O)c1ccc(Nc2ccnc3cc(Cl)ccc23)cc1
793 µg/mL
